# experiment_description: The compound was evaluated for the insecticidal activity against housefly with cytochrome P450 oxidase inhibitor piperonyl butoxide
# Assay type: ADME
# test_context: musca domestica
measurement_name: LD50 (ug fly-1)
Numbers only, in ug fly-1.

| compound | LD50 [ug fly-1] |
| --- | --- |
| C=C(C)[C@H]1Cc2c(ccc3c2O[C@@H]2COc4cc(OC)c(OC)cc4[C@]2(C)C3=O)O1 | 0.2 |
| C=C(C)[C@H]1Cc2c(ccc3c2O[C@@H]2COc4cc(OC)c(OC)cc4[C@@]2(C)C3=O)O1.C=C(C)[C@H]1Cc2c(ccc3c2O[C@H]2COc4cc(OC)c(OC)cc4[C@]2(C)C3=O)O1 | 4 |

Batch: LD50 for all items listed.
1. C=C(C)[C@H]1Cc2c(ccc3c2OC24COc5cc(OC)c(OC)cc5C2(C4)C3=O)O1 (some centres undefined)
2. C=C(C)[C@H]1Cc2c(ccc3c2O[C@@H]2COc4cc(OC)c(OC)cc4[C@@H]2C3=O)O1

1. 10
2. 5

====

# experiment_description: The compound was evaluated for the inhibition of NADH dehydrogenase
pIC50: −log10 of the molar value.
Output true for pIC50 not less than 8; output false otherwise.

Identify whether the reported pIC50 of the following molecule is 8 or greater: C=C(C)[C@H]1Cc2c(ccc3c2O[C@@H]2COc4cc(OC)c(OC)cc4[C@@]2(C)C3=O)O1.C=C(C)[C@H]1Cc2c(ccc3c2O[C@H]2COc4cc(OC)c(OC)cc4[C@]2(C)C3=O)O1
false

Does pIC50 meet or surpass 8 for C=C(C)[C@H]1Cc2c(ccc3c2OC24COc5cc(OC)c(OC)cc5C2(C4)C3=O)O1 (stereo not given in full) ?
false

Record C=C(C)[C@H]1Cc2c(ccc3c2O[C@@H]2COc4cc(OC)c(OC)cc4[C@@H]2C3=O)O1 ; criterion: pIC50 no lower than 8. Met?
true
